Test system: UACC-62 melanoma
protocol.summary: NCI tumour cell line growth inhibition, 48 h
result.type: TGI (µM)
One number for each entry, in µM.

These solved cases illustrate the format of a correct answer.
In [3]: df
Out[3]:
                                   molecule  unit_abbrev  measured_number
0  COc1cccc(C2c3cc4c(cc3OC(N3CCOCC3)C2C)OCO4)c1O (stereo not given)           µM             40.2
1  COc1cccc2c(=O)c3c(sc12)c(NCCCN)nc1ccccc13           µM             3.05
2  CC[C@@]1(OC(=O)CCC(=O)O)C(=O)OCc2c1cc1n(c2=O)Cc2cc3ccccc3nc2-1           µM            0.255

Consider the record given below.
Input line: What measured TGI goes with COC(=O)C(Cc1ccccc1)NC(=O)CNC(=O)CSc1nnc(COc2ccc(Cl)cc2)n1-c1ccccc1 (stereo not given) ?
Output line: 28.6

Measured values drawn from PubChem BioAssay (NCI) for this set.
